SNB-19 data, read-out log10 GI50
Where a name gives a salt, the structure may show the parent alone.
measureName: log10 GI50 (log10 of the value in nM)

| compound | studySystem | log10 GI50 |
| --- | --- | --- |
| NCCCN1CCN(CCCNc2nc3ccccc3c3[nH]c4ccccc4c23)CC1 [Compound 6, hydrochloride] | SNB-19 | 2.43 |
| Cl.OCCNCCNc1nc2ccccc2c2[nH]c3ccccc3c12 [Compound 9, hydrochloride] | SNB-19 | 3.32 |
| c1ccc2c(c1)nc(NCCN1CCNCC1)c1c3ccccc3[nH]c21 [Compound 5] | SNB-19 | 2.48 |
| Cl.OCCNc1nc2ccccc2c2[nH]c3ccccc3c12 [Compound 7d, hydrochloride] | SNB-19 | 2.61 |
| Oc1ccc(CCNc2nc3ccccc3c3[nH]c4ccccc4c23)cc1 [Compound 7a, hydrochloride] | SNB-19 | 3.26 |
| CN(CCCN)CCCNc1nc2ccccc2c2[nH]c3ccccc3c12 [Compound 10, hydrochloride] | SNB-19 | 2.18 |
| Cl.Nc1nc2ccccc2c2[nH]c3ccccc3c12 [Compound 7e, hydrochloride] | SNB-19 | 3.04 |
| Cl.c1ccc2c(c1)nc(NCCCNCCCNc1nc3ccccc3c3[nH]c4ccccc4c13)c1c3ccccc3[nH]c21 [Compound 8a, hydrochloride] | SNB-19 | 1.85 |

----------
Counter-ions that a name gives are not always drawn.
Measured melting point values are reported for all entries that follow.
measureName: melting point

| compound | measureName | recordedResult |
| --- | --- | --- |
| Cl.OCCNc1nc2ccccc2c2[nH]c3ccccc3c12 [Compound 7d] | melting point | 344 to 345 °C |
| Cl.c1ccc2c(c1)nc(NCCCNCCCNc1nc3ccccc3c3[nH]c4ccccc4c13)c1c3ccccc3[nH]c21 [Compound 8a] | melting point | 107 to 108 °C |
| Cl.Nc1nc2ccccc2c2[nH]c3ccccc3c12 [Compound 7e] | melting point | 377 to 378 °C |
| c1ccc2c(c1)nc(NCCN1CCNCC1)c1c3ccccc3[nH]c21 (as salt: hydrochloride) [Compound 5] | melting point | 210 to 211 °C |
| Cl.OCCNCCNc1nc2ccccc2c2[nH]c3ccccc3c12 [Compound 9] | melting point | 276 °C |

----------
tested on: MDA-MB-435; test: In vitro anticancer assay (NCI panel), MDA-MB-435; format: cell-based; details: Homo sapiens; MDA-MB-435, breast cancer
Counter-ions that a name gives are not always drawn.
measureName: log10(GI50) (log10 of the value in nM)

| compound | measureName | recordedResult |
| --- | --- | --- |
| Cl.OCCNCCNc1nc2ccccc2c2[nH]c3ccccc3c12 [Compound 9, hydrochloride] | log10(GI50) | 3.16 |
| c1ccc2c(c1)nc(NCCN1CCNCC1)c1c3ccccc3[nH]c21 | log10(GI50) | 2.80 |
| Oc1ccc(CCNc2nc3ccccc3c3[nH]c4ccccc4c23)cc1 [Compound 7a, hydrochloride] | log10(GI50) | 3.20 |
| NCCCN1CCN(CCCNc2nc3ccccc3c3[nH]c4ccccc4c23)CC1 [Compound 6, hydrochloride] | log10(GI50) | 2.57 |
| Cl.c1ccc2c(c1)nc(NCCCNCCCNc1nc3ccccc3c3[nH]c4ccccc4c13)c1c3ccccc3[nH]c21 [Compound 8a, hydrochloride] | log10(GI50) | 2.93 |
| Cl.OCCNc1nc2ccccc2c2[nH]c3ccccc3c12 [Compound 7d, hydrochloride] | log10(GI50) | 2.61 |
| CN(CCCN)CCCNc1nc2ccccc2c2[nH]c3ccccc3c12 [Compound 10, hydrochloride] | log10(GI50) | 2.28 |
| CN(CCCNc1nc2ccccc2c2[nH]c3ccccc3c12)CCCNc1nc2ccccc2c2[nH]c3ccccc3c12.Cl [Compound 8b, hydrochloride] | log10(GI50) | 2.04 |
| Cl.Nc1nc2ccccc2c2[nH]c3ccccc3c12 [Compound 7e, hydrochloride] | log10(GI50) | 2.97 |

Where these numbers come from: patent US8273760B2
